- assayedSystem: Human recombinant Acetyl-CoA Carboxylase 2 (ACC2) (Homo sapiens, UniProt O00763)
- Sequence (O00763 whole entry): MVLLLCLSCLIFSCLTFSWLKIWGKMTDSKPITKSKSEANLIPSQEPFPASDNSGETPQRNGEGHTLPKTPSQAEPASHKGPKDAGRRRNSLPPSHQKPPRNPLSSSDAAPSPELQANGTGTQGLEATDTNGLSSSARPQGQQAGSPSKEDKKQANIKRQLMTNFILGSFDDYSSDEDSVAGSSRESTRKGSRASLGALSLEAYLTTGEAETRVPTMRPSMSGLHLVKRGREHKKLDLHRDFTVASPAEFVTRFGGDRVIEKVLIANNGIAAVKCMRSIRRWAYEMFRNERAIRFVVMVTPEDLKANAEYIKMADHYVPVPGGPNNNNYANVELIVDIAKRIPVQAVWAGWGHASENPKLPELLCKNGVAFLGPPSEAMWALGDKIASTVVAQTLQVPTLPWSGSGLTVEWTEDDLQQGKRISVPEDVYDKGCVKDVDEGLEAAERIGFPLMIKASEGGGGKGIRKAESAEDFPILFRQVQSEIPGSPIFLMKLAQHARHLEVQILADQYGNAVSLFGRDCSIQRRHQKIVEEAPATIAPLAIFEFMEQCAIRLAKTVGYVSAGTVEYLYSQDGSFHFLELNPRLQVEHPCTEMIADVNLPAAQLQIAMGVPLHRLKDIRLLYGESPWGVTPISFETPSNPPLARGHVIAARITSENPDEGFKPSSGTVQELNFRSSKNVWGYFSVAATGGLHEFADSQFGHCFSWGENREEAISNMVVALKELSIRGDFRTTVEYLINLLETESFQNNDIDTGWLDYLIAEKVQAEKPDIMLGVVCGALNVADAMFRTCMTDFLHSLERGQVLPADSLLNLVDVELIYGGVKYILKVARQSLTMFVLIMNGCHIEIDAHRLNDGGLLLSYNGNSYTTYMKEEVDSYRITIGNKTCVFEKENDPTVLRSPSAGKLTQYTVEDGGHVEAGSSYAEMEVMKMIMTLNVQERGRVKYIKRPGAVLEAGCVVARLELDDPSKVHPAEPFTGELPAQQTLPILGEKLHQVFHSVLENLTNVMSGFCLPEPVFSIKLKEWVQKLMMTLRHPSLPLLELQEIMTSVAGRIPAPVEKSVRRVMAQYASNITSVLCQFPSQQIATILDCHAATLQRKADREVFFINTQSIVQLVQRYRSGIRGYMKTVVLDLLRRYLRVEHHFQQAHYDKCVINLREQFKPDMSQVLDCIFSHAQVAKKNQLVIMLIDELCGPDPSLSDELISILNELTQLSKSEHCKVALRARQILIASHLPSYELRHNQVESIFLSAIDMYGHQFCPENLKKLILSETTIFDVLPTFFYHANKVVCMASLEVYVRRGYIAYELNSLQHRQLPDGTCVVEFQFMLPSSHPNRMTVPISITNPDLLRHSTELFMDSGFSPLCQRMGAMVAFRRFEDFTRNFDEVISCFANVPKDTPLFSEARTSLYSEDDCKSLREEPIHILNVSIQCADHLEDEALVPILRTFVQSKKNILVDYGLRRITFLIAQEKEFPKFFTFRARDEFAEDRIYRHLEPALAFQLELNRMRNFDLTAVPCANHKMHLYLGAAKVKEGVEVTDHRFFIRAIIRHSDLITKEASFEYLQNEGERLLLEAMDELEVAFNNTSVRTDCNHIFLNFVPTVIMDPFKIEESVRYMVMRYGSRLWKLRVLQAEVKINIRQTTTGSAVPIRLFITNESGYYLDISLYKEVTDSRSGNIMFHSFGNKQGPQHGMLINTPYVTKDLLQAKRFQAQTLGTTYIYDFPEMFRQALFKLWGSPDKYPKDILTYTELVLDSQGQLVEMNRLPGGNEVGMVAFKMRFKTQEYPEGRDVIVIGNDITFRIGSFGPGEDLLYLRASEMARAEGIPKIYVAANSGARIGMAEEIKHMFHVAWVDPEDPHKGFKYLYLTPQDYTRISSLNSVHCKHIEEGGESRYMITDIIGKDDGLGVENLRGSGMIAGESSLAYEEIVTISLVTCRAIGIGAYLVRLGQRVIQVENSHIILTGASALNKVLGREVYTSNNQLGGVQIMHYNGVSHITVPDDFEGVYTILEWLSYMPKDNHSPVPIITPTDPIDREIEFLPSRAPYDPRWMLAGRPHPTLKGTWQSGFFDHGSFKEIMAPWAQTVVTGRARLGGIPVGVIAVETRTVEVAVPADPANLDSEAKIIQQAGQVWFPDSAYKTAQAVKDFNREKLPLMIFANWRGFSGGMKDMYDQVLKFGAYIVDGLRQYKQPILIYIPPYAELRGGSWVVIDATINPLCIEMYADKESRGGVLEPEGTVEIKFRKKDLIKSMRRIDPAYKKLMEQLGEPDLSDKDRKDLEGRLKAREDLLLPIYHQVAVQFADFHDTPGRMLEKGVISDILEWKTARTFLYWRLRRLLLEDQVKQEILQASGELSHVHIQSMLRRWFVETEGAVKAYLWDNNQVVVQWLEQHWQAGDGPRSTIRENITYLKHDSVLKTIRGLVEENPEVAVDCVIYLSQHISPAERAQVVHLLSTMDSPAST
- runDescription: Assay Y: ACC2 inhibition, inorganic phosphate (Malachite Green)
- Assay type: biochemical
- measurementSetup: Assay Y: room temperature, 3 hr, 15 min preincubation
reportedEndpoint: IC50 (nM)

Example molecules with recorded IC50:
>  <molecule>
CC(C)(C)OC(=O)NC[C@H]1CC[C@H](CNS(=O)(=O)c2cccc3cccnc23)CC1

>  <unitsLabel>
nM

>  <reportedResult>
1390

$$$$
>  <molecule>
Cc1[nH]c(=O)ccc1-c1cc(C(=O)NC[C@H]2CC[C@H](CNC(=O)OC(C)(C)C)CC2)c2ccccc2n1

>  <unitsLabel>
nM

>  <reportedResult>
2960

$$$$
>  <molecule>
CC(C)(C)OC(=O)NC[C@H]1CC[C@H](CNC(=O)c2cc(-c3ccc(F)cc3)nc3ccccc23)CC1

>  <unitsLabel>
nM

>  <reportedResult>
180

$$$$
>  <molecule>
CCCN(C[C@H]1CC[C@H](CNC(=O)OC(C)(C)C)CC1)S(=O)(=O)c1ccc2ccccc2c1

>  <unitsLabel>
nM

>  <reportedResult>
8710

$$$$
>  <molecule>
CC(=O)N1CCN(c2ccc(-c3cc(C(=O)NC[C@H]4CC[C@H](CNC(=O)OC(C)(C)C)CC4)c4ccccc4n3)cn2)CC1

>  <unitsLabel>
nM

>  <reportedResult>
130

$$$$

(I) CN1CCN(c2ccc(-c3cc(C(=O)NC[C@H]4CC[C@H](CNC(=O)OC5CCOC5)CC4)c4ccccc4n3)cn2)CC1 (relative stereo)
(II) CCOC(=O)NC[C@H]1CC[C@H](CNC(=O)c2cc(-c3cccc(OC)c3)nc3ccccc23)CC1
(III) CC(C)(C)OC(=O)NC[C@H]1CC[C@H](CNS(=O)(=O)c2cccc(-c3ccccc3)c2)CC1
(IV) CC(C)(C)OC(=O)NC[C@H]1CC[C@H](CNC(=O)c2cncc(-c3ccccc3)c2)CC1
Given 4 molecules, produce a descending ranking by IC50. Reply with the item labels sorted in the order that was asked for.
IV, III, II, I

(P) CC(C)(C)OC(=O)NC[C@H]1CC[C@H](CN(CC2CCOCC2)S(=O)(=O)c2ccc3ccccc3c2)CC1
(Q) COc1ccccc1-c1cc(C(=O)NC[C@H]2CC[C@H](CNC(=O)OC(C)(C)C)CC2)c2ccccc2n1
(R) CC(C)(C)OC(=O)NC[C@H]1CC[C@H](CNC(=O)c2cc(-c3ccc(C(N)=O)cc3)nc3ccccc23)CC1
(S) COC[C@@H](C)OC(=O)NC[C@H]1CC[C@H](CNC(=O)c2cc(-c3ccc(N4CCN(C)CC4)nc3)nc3ccccc23)CC1 (stereo in doubt)
Given 4 molecules, produce a descending ranking by IC50. Reply with the item labels sorted in the order that was asked for.
P, S, Q, R
(P: 3170 nM, S: 940 nM, Q: 460 nM, R: 40 nM)

---

- assayedSystem: Human recombinant Acetyl-CoA Carboxylase 2 (ACC2) (Homo sapiens)
- runDescription: Assay X: ACC2 inhibition, inorganic phosphate (malachite green)
- Type: biochemical
- measurementSetup: Assay X: 37° C., 1.5 h, 5 min pre-incubation
pIC50: −log10 of the molar value.
reportedEndpoint: pIC50

>  <compound>
CC(C)(C)OC(=O)NC[C@H]1CC[C@H](CNC(=O)c2cc(-c3ccc(NCCC(N)=O)nc3)nc3ccccc23)CC1 [Example 167]

>  <pIC50>
5.80

$$$$
>  <compound>
COCCNCCC1CCN(c2cc(C(=O)NC[C@H]3CC[C@H](CNC(=O)OC(C)(C)C)CC3)c3ccccc3n2)CC1 [Example 226]

>  <pIC50>
6.70

$$$$
>  <compound>
CC(C)(C)OC(=O)NC[C@H]1CC[C@H](CNC(=O)c2cc(N3CCC(CCN)CC3)nc3ccccc23)CC1 [Example 194]

>  <pIC50>
7.30

$$$$

(I) CC(C)(C)OC(=O)NC[C@H]1CC[C@H](CNC(=O)c2cc(-c3ccc(OCCO)nc3)nc3ccccc23)CC1 [Example 174]
(II) CC(CNc1ccc(-c2cc(C(=O)NC[C@H]3CC[C@H](CNC(=O)OC(C)(C)C)CC3)c3ccccc3n2)cn1)C(=O)O (relative stereo) [Example 158]
Given the listed records, identify the one among I and II with higher pIC50. Your answer should be the label attached to the chosen record.
I
